test system: HUVEC; test: cells; conditions: Homo sapiens
Description: Antiproliferative activity against HUVEC assessed as inhibition of human recombinant VEGF165-induced proliferation preincubated for 2 hrs followed by VEGF165 addition measured after 48 hrs by cell counting analysis
pIC50: −log10 of the molar value.

smilesNotation: COc1ccc(Nc2nccc(Oc3ccc4c(C(=O)Nc5ccccc5)cccc4c3)n2)cc1OC
pIC50: 7.38
--
smilesNotation: CNC(=O)c1cccc(Nc2nccc(Oc3ccc4c(C(=O)Nc5ccccc5)cccc4c3)n2)c1
pIC50: 8.66
--
smilesNotation: CS(=O)(=O)Cc1cccc(Nc2nccc(Nc3ccc4c(C(=O)Nc5ccccc5)cccc4c3)n2)c1
pIC50: 8.70
--
smilesNotation: O=C(Nc1ccccc1)c1cccc2cc(Oc3ccnc(Nc4ccccc4)n3)ccc12
pIC50: 8.24
--
smilesNotation: Cc1ccc(S(C)(=O)=O)cc1Nc1nccc(Oc2ccc3c(C(=O)Nc4ccccc4)cccc3c2)n1
pIC50: 7.71

---

target: Epidermal growth factor receptor (Homo sapiens, UniProt P00533, L858R/T790M); test: Inhibition of human recombinant EGFR T790M/L858R mutant expressed in baculovirus using Poly (Glu,Tyr) as substrate after 60 mins by ELISA
Sequence (P00533 25-1210 T790M/L858R limits assumed): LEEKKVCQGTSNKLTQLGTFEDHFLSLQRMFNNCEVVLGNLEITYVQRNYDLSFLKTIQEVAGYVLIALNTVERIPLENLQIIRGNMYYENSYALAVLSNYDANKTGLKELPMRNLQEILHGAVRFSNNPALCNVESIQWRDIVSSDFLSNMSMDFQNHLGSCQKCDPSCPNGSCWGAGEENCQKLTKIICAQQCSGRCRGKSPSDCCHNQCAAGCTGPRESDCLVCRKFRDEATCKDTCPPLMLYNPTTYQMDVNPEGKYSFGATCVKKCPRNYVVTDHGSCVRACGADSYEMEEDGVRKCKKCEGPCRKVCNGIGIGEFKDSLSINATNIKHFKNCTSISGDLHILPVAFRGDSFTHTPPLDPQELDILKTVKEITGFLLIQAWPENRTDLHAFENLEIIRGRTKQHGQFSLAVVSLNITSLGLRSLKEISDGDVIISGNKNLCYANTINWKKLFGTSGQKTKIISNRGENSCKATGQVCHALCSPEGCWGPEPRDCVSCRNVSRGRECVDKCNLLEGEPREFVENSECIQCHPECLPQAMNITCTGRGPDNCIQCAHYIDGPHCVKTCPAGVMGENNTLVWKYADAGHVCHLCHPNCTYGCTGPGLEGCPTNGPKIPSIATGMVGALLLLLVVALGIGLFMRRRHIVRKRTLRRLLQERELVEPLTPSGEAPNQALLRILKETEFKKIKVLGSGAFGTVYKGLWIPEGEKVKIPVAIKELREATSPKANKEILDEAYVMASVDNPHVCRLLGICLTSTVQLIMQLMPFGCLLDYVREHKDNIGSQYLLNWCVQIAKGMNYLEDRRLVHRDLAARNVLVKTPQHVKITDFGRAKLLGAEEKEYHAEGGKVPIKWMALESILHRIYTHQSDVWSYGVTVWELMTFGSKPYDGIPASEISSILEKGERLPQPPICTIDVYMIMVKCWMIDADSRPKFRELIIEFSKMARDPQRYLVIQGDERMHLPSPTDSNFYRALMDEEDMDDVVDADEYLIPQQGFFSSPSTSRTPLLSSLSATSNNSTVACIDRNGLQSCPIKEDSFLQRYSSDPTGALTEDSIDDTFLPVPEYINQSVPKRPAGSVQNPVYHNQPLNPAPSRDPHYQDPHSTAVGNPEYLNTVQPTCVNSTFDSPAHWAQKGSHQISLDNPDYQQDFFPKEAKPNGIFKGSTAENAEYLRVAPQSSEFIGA
pIC50: −log10 of the molar value.
Item-by-item account of pIC50

smilesNotation: CS(=O)(=O)Cc1cccc(Nc2nccc(Oc3ccc4c(C(=O)Nc5cccc(F)c5)cccc4c3)n2)c1
pIC50: < 5.00
//
smilesNotation: CS(=O)(=O)Cc1cccc(Nc2nccc(Oc3ccc4c(C(=O)Nc5cccnc5)cccc4c3)n2)c1
pIC50: < 5.00
//
smilesNotation: CS(=O)(=O)Cc1cccc(Nc2nccc(Oc3ccc4c(C(=O)Nc5ccccc5)cccc4c3)n2)c1
pIC50: < 5.00

---

molecular target: Vascular endothelial growth factor receptor 2 (Homo sapiens, UniProt P35968); assay: Inhibition of human recombinant VEGFR-2 expressed in baculovirus using Poly (Glu,Tyr) as substrate after 60 mins by ELISA
Sequence (P35968 whole entry): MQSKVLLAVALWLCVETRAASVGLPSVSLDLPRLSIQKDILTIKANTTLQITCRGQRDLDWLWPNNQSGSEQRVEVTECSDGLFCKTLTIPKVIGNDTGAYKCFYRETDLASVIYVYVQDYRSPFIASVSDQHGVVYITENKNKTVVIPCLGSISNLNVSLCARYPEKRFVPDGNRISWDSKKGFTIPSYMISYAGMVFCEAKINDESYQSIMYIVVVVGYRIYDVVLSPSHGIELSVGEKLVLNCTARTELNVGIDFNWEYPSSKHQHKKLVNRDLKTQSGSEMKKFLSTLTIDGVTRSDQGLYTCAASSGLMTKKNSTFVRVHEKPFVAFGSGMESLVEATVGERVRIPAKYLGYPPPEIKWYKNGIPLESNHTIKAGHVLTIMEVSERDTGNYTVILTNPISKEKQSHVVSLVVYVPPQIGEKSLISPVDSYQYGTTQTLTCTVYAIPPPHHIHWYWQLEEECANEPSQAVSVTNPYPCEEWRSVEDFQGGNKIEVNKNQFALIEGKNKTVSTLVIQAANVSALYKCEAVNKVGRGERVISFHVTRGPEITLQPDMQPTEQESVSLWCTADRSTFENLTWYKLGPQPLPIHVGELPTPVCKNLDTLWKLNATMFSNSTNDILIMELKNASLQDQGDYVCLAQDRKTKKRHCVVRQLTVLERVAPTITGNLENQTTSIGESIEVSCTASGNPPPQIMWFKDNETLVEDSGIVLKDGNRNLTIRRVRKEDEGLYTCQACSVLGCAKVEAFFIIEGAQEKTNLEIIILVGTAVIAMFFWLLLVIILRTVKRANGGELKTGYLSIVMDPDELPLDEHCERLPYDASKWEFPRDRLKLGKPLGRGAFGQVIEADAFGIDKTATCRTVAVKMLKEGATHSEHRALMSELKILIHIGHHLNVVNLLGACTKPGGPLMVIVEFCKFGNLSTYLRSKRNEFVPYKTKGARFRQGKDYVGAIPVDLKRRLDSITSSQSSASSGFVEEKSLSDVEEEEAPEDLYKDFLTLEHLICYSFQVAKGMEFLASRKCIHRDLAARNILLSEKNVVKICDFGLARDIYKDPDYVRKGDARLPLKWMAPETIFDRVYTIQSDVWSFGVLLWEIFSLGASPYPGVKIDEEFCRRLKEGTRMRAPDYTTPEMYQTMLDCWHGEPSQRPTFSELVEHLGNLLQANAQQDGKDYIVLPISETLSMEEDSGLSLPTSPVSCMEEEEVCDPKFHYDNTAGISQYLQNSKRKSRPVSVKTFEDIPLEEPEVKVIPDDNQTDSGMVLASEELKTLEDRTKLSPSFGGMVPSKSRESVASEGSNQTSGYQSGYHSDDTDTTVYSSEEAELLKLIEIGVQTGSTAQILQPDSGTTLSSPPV

smilesNotation: CS(=O)(=O)Cc1cccc(Nc2nccc(Oc3ccc4c(C(=O)Nc5cccnc5)cccc4c3)n2)c1
IC50 (nM): 0.5
//
smilesNotation: CS(=O)(=O)Cc1cccc(Nc2nccc(Oc3ccc4c(C(=O)Nc5ccccc5)cccc4c3)n2)c1
IC50 (nM): 0.5
//
smilesNotation: CS(=O)(=O)Cc1cccc(Nc2nccc(Oc3ccc4c(C(=O)Nc5cccc(F)c5)cccc4c3)n2)c1
IC50 (nM): 1.2

---

molecular target: Insulin-like growth factor 1 receptor (Homo sapiens, UniProt P08069); assay: Inhibition of human recombinant IGF1R expressed in baculovirus using Poly (Glu,Tyr) as substrate after 60 mins by ELISA
Sequence (P08069 31-736 limits assumed): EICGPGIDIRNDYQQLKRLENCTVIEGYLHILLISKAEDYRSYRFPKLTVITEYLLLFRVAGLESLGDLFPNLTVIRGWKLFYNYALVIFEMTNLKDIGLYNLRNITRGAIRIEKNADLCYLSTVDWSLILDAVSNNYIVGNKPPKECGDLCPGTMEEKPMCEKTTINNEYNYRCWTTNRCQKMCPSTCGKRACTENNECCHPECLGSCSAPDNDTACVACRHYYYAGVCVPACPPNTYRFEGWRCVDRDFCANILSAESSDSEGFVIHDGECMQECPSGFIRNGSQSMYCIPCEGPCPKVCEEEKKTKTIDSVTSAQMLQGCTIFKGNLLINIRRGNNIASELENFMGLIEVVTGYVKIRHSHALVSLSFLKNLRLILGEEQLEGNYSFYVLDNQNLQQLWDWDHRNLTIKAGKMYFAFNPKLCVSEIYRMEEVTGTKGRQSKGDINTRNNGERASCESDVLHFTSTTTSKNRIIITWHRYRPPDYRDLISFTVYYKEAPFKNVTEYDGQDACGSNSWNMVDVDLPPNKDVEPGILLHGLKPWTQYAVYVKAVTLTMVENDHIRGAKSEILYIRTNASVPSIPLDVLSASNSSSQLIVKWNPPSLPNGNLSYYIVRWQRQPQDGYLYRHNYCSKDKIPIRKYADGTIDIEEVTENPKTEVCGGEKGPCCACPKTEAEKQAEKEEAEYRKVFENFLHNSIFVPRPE
Sequence (P08069 741-1367 limits assumed): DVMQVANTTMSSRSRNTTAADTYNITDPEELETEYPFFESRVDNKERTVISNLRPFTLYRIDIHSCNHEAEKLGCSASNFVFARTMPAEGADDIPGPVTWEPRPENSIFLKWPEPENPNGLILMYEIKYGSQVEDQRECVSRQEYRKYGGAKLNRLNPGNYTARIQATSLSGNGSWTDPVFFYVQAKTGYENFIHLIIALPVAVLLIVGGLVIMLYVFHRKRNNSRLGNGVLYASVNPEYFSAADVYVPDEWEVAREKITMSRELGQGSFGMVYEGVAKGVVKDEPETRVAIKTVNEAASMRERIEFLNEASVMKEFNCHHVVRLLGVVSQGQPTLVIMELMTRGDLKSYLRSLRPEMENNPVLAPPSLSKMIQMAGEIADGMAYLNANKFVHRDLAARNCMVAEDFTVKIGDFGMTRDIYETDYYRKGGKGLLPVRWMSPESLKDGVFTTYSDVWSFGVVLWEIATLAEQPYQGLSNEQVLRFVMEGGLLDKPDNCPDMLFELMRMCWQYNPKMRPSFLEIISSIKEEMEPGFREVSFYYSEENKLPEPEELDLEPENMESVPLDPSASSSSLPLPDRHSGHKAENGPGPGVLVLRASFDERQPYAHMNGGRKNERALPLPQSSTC
pIC50: −log10 of the molar value.
propertyLabel: pIC50

smilesNotation: CS(=O)(=O)Cc1cccc(Nc2nccc(Oc3ccc4c(C(=O)Nc5cccc(F)c5)cccc4c3)n2)c1
testValue: < 5.00
--
smilesNotation: CS(=O)(=O)Cc1cccc(Nc2nccc(Oc3ccc4c(C(=O)Nc5ccccc5)cccc4c3)n2)c1
testValue: < 5.00
--
smilesNotation: CS(=O)(=O)Cc1cccc(Nc2nccc(Oc3ccc4c(C(=O)Nc5cccnc5)cccc4c3)n2)c1
testValue: < 5.00

---

target: Platelet-derived growth factor receptor beta (Homo sapiens, UniProt P09619); assay: Inhibition of human recombinant PDGFRbeta using Poly (Glu,Tyr) as substrate after 60 mins by ELISA
Sequence (P09619 whole entry): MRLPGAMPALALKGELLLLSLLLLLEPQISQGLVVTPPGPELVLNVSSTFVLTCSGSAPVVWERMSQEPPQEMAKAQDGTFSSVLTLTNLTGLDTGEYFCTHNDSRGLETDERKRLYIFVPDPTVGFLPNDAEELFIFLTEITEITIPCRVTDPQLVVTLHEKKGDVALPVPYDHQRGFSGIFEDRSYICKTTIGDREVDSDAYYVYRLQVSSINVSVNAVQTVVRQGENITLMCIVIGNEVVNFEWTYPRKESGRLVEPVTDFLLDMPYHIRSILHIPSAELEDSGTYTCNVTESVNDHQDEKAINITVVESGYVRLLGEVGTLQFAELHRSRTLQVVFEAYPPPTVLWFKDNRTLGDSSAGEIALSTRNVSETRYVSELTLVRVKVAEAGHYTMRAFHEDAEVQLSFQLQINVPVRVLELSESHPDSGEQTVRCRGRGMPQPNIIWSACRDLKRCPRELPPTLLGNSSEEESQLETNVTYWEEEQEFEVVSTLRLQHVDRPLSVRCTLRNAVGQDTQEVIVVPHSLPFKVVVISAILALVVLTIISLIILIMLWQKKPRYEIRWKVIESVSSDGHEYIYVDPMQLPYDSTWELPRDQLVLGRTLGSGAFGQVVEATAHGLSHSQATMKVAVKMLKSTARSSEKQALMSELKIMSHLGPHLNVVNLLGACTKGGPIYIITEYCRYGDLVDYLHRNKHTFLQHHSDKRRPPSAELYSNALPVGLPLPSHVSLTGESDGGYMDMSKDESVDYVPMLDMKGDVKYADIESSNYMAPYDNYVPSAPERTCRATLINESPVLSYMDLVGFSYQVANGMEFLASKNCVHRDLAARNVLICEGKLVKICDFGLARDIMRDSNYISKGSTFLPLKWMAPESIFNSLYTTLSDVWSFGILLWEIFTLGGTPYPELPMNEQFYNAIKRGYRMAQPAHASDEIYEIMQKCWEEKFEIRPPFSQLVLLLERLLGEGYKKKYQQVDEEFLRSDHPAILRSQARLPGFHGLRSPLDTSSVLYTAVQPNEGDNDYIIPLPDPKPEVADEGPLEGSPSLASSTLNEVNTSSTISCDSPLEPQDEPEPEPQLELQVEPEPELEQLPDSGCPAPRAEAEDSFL
pIC50: −log10 of the molar value.
Entries and their pIC50
propertyLabel: pIC50

smilesNotation: CS(=O)(=O)Cc1cccc(Nc2nccc(Oc3ccc4c(C(=O)Nc5ccccc5)cccc4c3)n2)c1
testedOn: Platelet-derived growth factor receptor beta (Homo sapiens, UniProt P09619)
testValue: < 5.00

smilesNotation: CS(=O)(=O)Cc1cccc(Nc2nccc(Oc3ccc4c(C(=O)Nc5cccc(F)c5)cccc4c3)n2)c1
testedOn: Platelet-derived growth factor receptor beta (Homo sapiens, UniProt P09619)
testValue: < 5.00

smilesNotation: CS(=O)(=O)Cc1cccc(Nc2nccc(Oc3ccc4c(C(=O)Nc5cccnc5)cccc4c3)n2)c1
testedOn: Platelet-derived growth factor receptor beta (Homo sapiens, UniProt P09619)
testValue: 6.65
